Every entry's value here was drawn from patent US20210347873A1.

Target: T1, biotinylated hBLyS-ECD (human, UniProt Q9Y275 134-285, biotinylated with Biotin-X-X-NHS (molar ratio 7:1); sites not stated)
T1 construct: also called biotinylated immunogen; biotinylated hBLvS-ECD
T1 sequence (Q9Y275 134-285): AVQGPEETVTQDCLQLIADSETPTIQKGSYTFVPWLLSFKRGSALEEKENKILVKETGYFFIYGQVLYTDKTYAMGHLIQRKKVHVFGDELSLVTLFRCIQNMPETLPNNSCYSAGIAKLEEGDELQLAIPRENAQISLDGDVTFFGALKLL
Test: BAFF R-coated ELISA, biotinylated hBLyS-ECD bound in presence of antibody 0.032 nM
Exercise: state measured OD450 nm for each of the binders provided.
Answers are plain numbers, in OD450 nm.

For each listed entry, give its OD450 nm.
1. h97A3C2H4-9 (antibody, V domains shown, Humanized antibody; VH3-7/JH6 CDR-grafted with A93T, G44R; also called humanized BLyS antibody h97A3C2H4 variant 9 (VH.1b / Vk.1d)) VH: EVQLVESGGGLVQPGGSLRLSCAASGFTFSTYTMSWVRQAPGKRLEWVAYISYGGGSTSYPDTVKGRFTISRDNAKNSLYLQMNSLRAEDTAVYYCTRHVTVVENSMDYWGQGTTVTVSS VL: DILLTQSPDFQSVTPKEKVTITCRASQSIGTSIHWYQQKTDQSPKLLIKYVSESFSGTPSRFSGSGSGTDFTLTINSLEAEDAATYYCQQTHSWPWTFGGGTKVEIK
2. c97A3C2H4 (antibody, V domains shown, also called chimeric antibody c97A3C2H4) VH: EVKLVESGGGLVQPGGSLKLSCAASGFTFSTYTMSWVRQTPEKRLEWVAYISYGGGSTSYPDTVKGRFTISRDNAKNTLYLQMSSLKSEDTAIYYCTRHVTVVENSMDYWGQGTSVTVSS VL: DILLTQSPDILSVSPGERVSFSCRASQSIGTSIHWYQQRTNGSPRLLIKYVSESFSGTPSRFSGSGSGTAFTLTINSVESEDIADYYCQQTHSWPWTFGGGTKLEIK
3. c8E7D9C7F5 (antibody, V domains shown, also called chimeric antibody c8E7D9C7F5) VH: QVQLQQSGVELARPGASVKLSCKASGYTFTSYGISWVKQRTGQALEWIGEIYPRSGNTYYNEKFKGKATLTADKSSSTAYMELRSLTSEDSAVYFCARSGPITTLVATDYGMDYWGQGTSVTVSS VL: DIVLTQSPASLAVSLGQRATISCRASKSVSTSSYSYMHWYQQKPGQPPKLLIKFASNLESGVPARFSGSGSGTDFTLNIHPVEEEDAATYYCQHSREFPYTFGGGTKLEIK
4. h8E7D9C7F5-1 (antibody, V domains shown, Humanized antibody; also called humanized BLyS antibody h8E7D9C7F5 variant 1 (VH.1 / Vk.1)) VH: EVQLVQSGAEVKKPGASVKVSCKASGYTFTSYGISWVRQAPGQGLEWMGEIYPRSGNTYYNEKFKGRVTMTTDTSTSTAYMELRSLRSDDTAVYYCARSGPITTLVATDYGMDYWGQGTTVTVSS VL: DIVMTQSPDSLAVSLGERATINCRASKSVSTSSYSYMHWYQQKPGQPPKLLIKFASNLESGVPDRFSGSGSGTDFTLTISSLQAEDVAVYYCQHSREFPYTFGGGTKVEIK

Response:
1. 1.98
2. 1.84
3. 1.97
4. 1.87
